SUBJECT OF TEST: T1, human complement factor D purified from serum (human, UniProt P00746 26-253)
T1 construct: serum-purified (CompTech); also called hCFD-Comptech; CFD
METHOD DESCRIPTION: SPR MX96
ENDPOINT NAME: pKd
// pKd: -log10(molar conc.)

Would you please look over these solved cases?
Fill in the blank: the reported pKd of KCD003 (antibody, V domains shown, chimeric) VH: EVQLQQSRPELVKPGASVKIFCKASGYTFTDYYMNWMRQRHGETLEWIGDINPNNGDPSYNQKFKDKATLTVDKSSSTASMELRSLTSDDSAVYYCAREGPSFAYWGQGTLVTVSA VL: DVLMTQTPLSLPVSLGEQASISCRSSQTIVHSNGDTYLEWYLQKPGQSPNLLIYKVSNRFSGVPDRFSGSGSGTDFTLKISRVEAEDLGVYYCFQGSHVPPTFGGGTKLEIK is ____.
8.96

Consider next the binder KCD033 (antibody, V domains shown) VH: EVQLQQSGPELVKPGASMKISCTASGYSFTGYTMTWVKQSHGKNLEWIGLINPYNGGTNYNQKFKGKATLTVDKSSSIAYMELLSLTSEDSAVYYCARRHYGSNWDYWGQGTTLTVSS VL: DIKLTQSPSSIYTSLGERVTITCKASQDINTYLSWFQQRPGKSPKTLIYRADRLVDGVPSRVRGSGSGQDYSLTISSLEYEDMGIYYCLQYDEFPYTFGGGTKLEIK in the same way.
7.96

More entries:
Fill in the blank: the reported pKd of KCD066 (antibody, V domains shown) VH: QVQLQQSAAELARPGASVKMSCKASGYTFTDYTMHWVKQRPGQGLEWIGYINPSGGYTDYNQKFKDKTALTADKSSSTAYMQLSSLTSEDSAVYYCARRRDYWFAYWGQGTLVTVSA VL: DIVMSQSPSSLAVSVGEKVTMSCKSSQSLLYSGNQKNYLAWYQQKPGQSPKLLIYWASTRESGVPDRFTGSGSGTDFTLTISSVKAEDLAVYYCHQYYSYLTFGAGTKLELK is ____.
8.54

Values compiled from patent US20180334496A1.
